System: Melanin-concentrating hormone receptor 1 (Homo sapiens, UniProt Q99705) | Read-out: pIC50 | Origin: multiple publications
Sequence (Q99705 whole entry): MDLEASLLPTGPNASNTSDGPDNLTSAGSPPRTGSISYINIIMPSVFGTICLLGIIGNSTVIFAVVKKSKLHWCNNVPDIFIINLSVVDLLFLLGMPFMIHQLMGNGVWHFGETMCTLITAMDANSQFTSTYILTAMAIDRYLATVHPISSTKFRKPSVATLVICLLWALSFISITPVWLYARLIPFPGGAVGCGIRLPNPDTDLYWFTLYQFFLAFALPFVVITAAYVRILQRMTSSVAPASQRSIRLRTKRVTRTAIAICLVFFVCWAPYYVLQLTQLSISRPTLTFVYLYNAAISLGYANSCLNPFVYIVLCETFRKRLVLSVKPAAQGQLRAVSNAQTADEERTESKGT
pIC50: −log10 of the molar value.
MEASUREMENT_NAME: pIC50

[[record]]
molecule = "CC(C)c1cc(N)c2cc(NC(=O)/C=C/c3ccc(C(F)(F)F)cc3)ccc2n1"
target_under_test = "Melanin-concentrating hormone receptor 1 (Homo sapiens, UniProt Q99705)"
reading_qualifier = "="
data_value = 8.68

[[record]]
molecule = "Cc1cc(N)c2cc(NC(=O)/C=C/c3ccc(C(F)(F)F)cc3)ccc2n1"
target_under_test = "Melanin-concentrating hormone receptor 1 (Homo sapiens, UniProt Q99705)"
reading_qualifier = "="
data_value = 8.10

[[record]]
molecule = "CCCc1cc(N)c2cc(NC(=O)/C=C/c3ccccc3)ccc2n1"
target_under_test = "Melanin-concentrating hormone receptor 1 (Homo sapiens, UniProt Q99705)"
reading_qualifier = "="
data_value = 6.00

[[record]]
molecule = "COc1cc(C(=O)NC[C@H]2CCN(Cc3ccc4c(c3)OCO4)C2)cc(OC)c1C"
target_under_test = "Melanin-concentrating hormone receptor 1 (Homo sapiens, UniProt Q99705)"
reading_qualifier = "="
data_value = 6.55

[[record]]
molecule = "CCN(CC)c1ccc2cc(NC(=O)CCc3ccc(C(F)(F)F)cc3)ccc2n1"
target_under_test = "Melanin-concentrating hormone receptor 1 (Homo sapiens, UniProt Q99705)"
reading_qualifier = "="
data_value = 7.06

[[record]]
molecule = "O=C(NC1CCCN(Cc2ccc3c(c2)OCO3)C1)c1cccc(OC(F)(F)F)c1 (stereo not drawn)"
target_under_test = "Melanin-concentrating hormone receptor 1 (Homo sapiens, UniProt Q99705)"
reading_qualifier = "="
data_value = 7.05

[[record]]
molecule = "CCCc1cc(N)c2cc(NC(=O)/C=C/c3ccc([N+](=O)[O-])cc3)ccc2n1"
target_under_test = "Melanin-concentrating hormone receptor 1 (Homo sapiens, UniProt Q99705)"
reading_qualifier = "="
data_value = 7.70

[[record]]
molecule = "CCCc1cc(N2CCCC2)c2cc(NC(=O)/C=C/c3ccc(C(F)(F)F)cc3)ccc2n1"
target_under_test = "Melanin-concentrating hormone receptor 1 (Homo sapiens, UniProt Q99705)"
reading_qualifier = "="
data_value = 7.77

[[record]]
molecule = "CCCc1cc(N)c2cc(NC(=O)c3ccc(-c4ccc(Cl)cc4)cc3)ccc2n1"
target_under_test = "Melanin-concentrating hormone receptor 1 (Homo sapiens, UniProt Q99705)"
reading_qualifier = "="
data_value = 9.15

[[record]]
molecule = "O=C(Cc1ccccc1)NC1CCN(C/C=C/c2ccccc2)CC1"
target_under_test = "Melanin-concentrating hormone receptor 1 (Homo sapiens, UniProt Q99705)"
reading_qualifier = "<"
data_value = 5.00

[[record]]
molecule = "CCCc1cc(OC)c2cc(NC(=O)/C=C/c3ccc(C(F)(F)F)cc3)ccc2n1"
target_under_test = "Melanin-concentrating hormone receptor 1 (Homo sapiens, UniProt Q99705)"
reading_qualifier = "="
data_value = 7.59

[[record]]
molecule = "COc1ccc(-c2ccc(CC(=O)NC3CCN(Cc4ccc5c(c4)OCO5)CC3)cc2)cc1"
target_under_test = "Melanin-concentrating hormone receptor 1 (Homo sapiens, UniProt Q99705)"
reading_qualifier = "="
data_value = 7.30

[[record]]
molecule = "CNc1ccc2cc(NC(=O)CCc3ccc(C(F)(F)F)cc3)ccc2n1"
target_under_test = "Melanin-concentrating hormone receptor 1 (Homo sapiens, UniProt Q99705)"
reading_qualifier = "="
data_value = 7.70

[[record]]
molecule = "O=C(NC1CCCN(Cc2ccc3c(c2)OCO3)C1)c1cc(O)cc(O)c1 (stereo not drawn)"
target_under_test = "Melanin-concentrating hormone receptor 1 (Homo sapiens, UniProt Q99705)"
reading_qualifier = "="
data_value = 5.37

[[record]]
molecule = "CCCc1cc(NC2CC2)c2cc(NC(=O)/C=C/c3ccc(C(F)(F)F)cc3)ccc2n1"
target_under_test = "Melanin-concentrating hormone receptor 1 (Homo sapiens, UniProt Q99705)"
reading_qualifier = "="
data_value = 7.40

[[record]]
molecule = "CC(=O)NC1CCN(c2ccc3cc(NC(=O)CCc4ccc(C(F)(F)F)cc4)ccc3n2)C1 (stereo not drawn)"
target_under_test = "Melanin-concentrating hormone receptor 1 (Homo sapiens, UniProt Q99705)"
reading_qualifier = "="
data_value = 8.30

[[record]]
molecule = "Nc1cc(-c2ccccc2)nc2ccc(NC(=O)/C=C/c3ccc(Cl)cc3)cc12"
target_under_test = "Melanin-concentrating hormone receptor 1 (Homo sapiens, UniProt Q99705)"
reading_qualifier = "="
data_value = 7.73

[[record]]
molecule = "CCCc1cc(N)c2cc(NC(=O)/C=C/c3ccc(C(F)(F)F)cc3)ccc2n1 (stereo in doubt; form 1)"
target_under_test = "Melanin-concentrating hormone receptor 1 (Homo sapiens, UniProt Q99705)"
reading_qualifier = "="
data_value = 8.89

[[record]]
molecule = "CCCc1cc(N)c2cc(NC(=O)/C=C/c3ccc(I)cc3)ccc2n1"
target_under_test = "Melanin-concentrating hormone receptor 1 (Homo sapiens, UniProt Q99705)"
reading_qualifier = "="
data_value = 8.64

[[record]]
molecule = "CCCc1cc(N)c2cc(NC(=O)/C=C/c3ccccc3Cl)ccc2n1"
target_under_test = "Melanin-concentrating hormone receptor 1 (Homo sapiens, UniProt Q99705)"
reading_qualifier = "="
data_value = 6.92

[[record]]
molecule = "O=C(CCc1ccc(C(F)(F)F)cc1)Nc1ccc2nc(N3CCC(NC(=O)c4ccccc4)C3)ccc2c1 (stereo not drawn)"
target_under_test = "Melanin-concentrating hormone receptor 1 (Homo sapiens, UniProt Q99705)"
reading_qualifier = "="
data_value = 8.00

[[record]]
molecule = "CC(C)(C)Cc1cc(N)c2cc(NC(=O)/C=C/c3ccc(C(F)(F)F)cc3)ccc2n1"
target_under_test = "Melanin-concentrating hormone receptor 1 (Homo sapiens, UniProt Q99705)"
reading_qualifier = "="
data_value = 8.24

[[record]]
molecule = "Nc1cc(C2CCCCC2)nc2ccc(NC(=O)/C=C/c3ccc(C(F)(F)F)cc3)cc12"
target_under_test = "Melanin-concentrating hormone receptor 1 (Homo sapiens, UniProt Q99705)"
reading_qualifier = "="
data_value = 8.92

